- target.under.test: human 5-HT2A receptor (Homo sapiens (Human), UniProt P28223)
- Sequence (P28223 whole entry): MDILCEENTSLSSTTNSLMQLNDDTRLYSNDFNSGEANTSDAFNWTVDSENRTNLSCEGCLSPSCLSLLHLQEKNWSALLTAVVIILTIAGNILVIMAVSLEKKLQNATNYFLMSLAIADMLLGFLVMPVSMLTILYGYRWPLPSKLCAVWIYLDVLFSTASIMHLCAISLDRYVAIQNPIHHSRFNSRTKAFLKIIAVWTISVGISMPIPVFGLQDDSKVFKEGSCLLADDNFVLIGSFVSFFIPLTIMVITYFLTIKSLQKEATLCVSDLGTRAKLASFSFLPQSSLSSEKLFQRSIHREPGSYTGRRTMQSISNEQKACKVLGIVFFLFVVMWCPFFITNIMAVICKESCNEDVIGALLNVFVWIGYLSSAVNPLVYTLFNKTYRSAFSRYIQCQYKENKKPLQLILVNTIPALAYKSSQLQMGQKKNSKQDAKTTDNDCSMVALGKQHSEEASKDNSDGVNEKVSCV
Ki under 6 nM gets label 1, anything at or over 6 nM gets label 0.

>>> class_name("O=C1c2c(Br)nn(Br)c2CCN1CCN1CCN(c2nsc3ccccc23)CC1")
"label 1"
>>> class_name("O=C1c2ncccc2CCN1CCN1CCN(c2noc3ccccc23)CC1")
"label 0"
>>> class_name("O=C1c2ncccc2CCN1CCN1CCC(c2noc3cccc(F)c23)CC1")
"label 0"
>>> class_name("O=C1c2cccnc2CCN1CCN1CCN(c2nsc3ccccc23)CC1")
"label 1"
>>> class_name("Cn1ncc2c1CCCN(CCN1CCC(c3noc4ccccc34)CC1)C2=O")
"label 1"
>>> class_name("Cn1ncc2c1CCCC(CCN1CCN(c3nsc4ccccc34)CC1)C2=O (centres unmarked)")
"label 1"
>>> class_name("Cc1nc2c(o1)CCCN(CCN1CCN(c3nsc4ccccc34)CC1)C2=O")
"label 1"
